Every entry's value here was drawn from ChEMBL document CHEMBL6177936.

- ASSAY NAME: MRT(infinity) in CSBS-PD induced Sprague-Dawley rat at 15.28 mg/kg, po incubated for 24 hrs by LC-MS/MS analysis
- Type: ADME, organism-based
- DETAILS: in vivo
QUANTITY MEASURED: MRT inf (h)

C[N+]1(C)CCC[C@H]1C(=O)[O-] : 9.97

---

- ASSAY NAME: Half life in Sprague-Dawley rat at 9.86 mg/kg, po by UPLC-MS/MS analysis
- Format: ADME, organism-based
- DETAILS: in vivo
QUANTITY MEASURED: half-life

C[N+]1(C)CCC[C@H]1C(=O)[O-] : 227 min
